Tested on: Pseudomonas aeruginosa ATCC 27853
Format: cell-based
Non-standard residues stand in square brackets, D forms with d. Residues, ends and D or L forms follow the SMILES beside them. dPhe(3,4-F2) = N[C@H](Cc1ccc(F)c(F)c1)C(=O)O; d2Nal = N[C@H](Cc1ccc2ccccc2c1)C(=O)O
metric: MIC Pseudomonas aeruginosa ATCC 27853 (µg/mL)

molecule="CC(=O)N[C@H](CCCNC(=N)N)C(=O)N[C@H](CCCCN)C(=O)N[C@H](CC(C)C)C(=O)N[C@H](CC(C)C)C(=O)N[C@H](Cc1ccc2ccccc2c1)C(=O)N[C@H](CCCNC(=N)N)C(=O)N[C@H](CC(C)C)C(=O)N[C@H](CCCCN)C(=O)N[C@H](Cc1ccc2ccccc2c1)C(=O)N[C@H](CCCNC(=N)N)C(=O)N[C@H](CCCCN)C(N)=O [LV-20] (Ac-[dR][dK][dL][dL][d2Nal][dR][dL][dK][d2Nal][dR][dK]-NH2)" subject_of_test="Pseudomonas aeruginosa ATCC 27853" measurement_unit=µg/mL reported=1
molecule="CC(=O)N[C@H](CCCNC(=N)N)C(=O)N[C@H](CCCCN)C(=O)N[C@H](CC(C)C)C(=O)N[C@H](CC(C)C)C(=O)N[C@H](Cc1ccc(F)c(F)c1)C(=O)N[C@H](CCCCN)C(=O)N[C@H](CC(C)C)C(=O)N[C@H](CCCCN)C(=O)N[C@H](Cc1ccc(F)c(F)c1)C(=O)N[C@H](CCCCN)C(=O)N[C@H](CCCNC(=N)N)C(N)=O [LV-6] (Ac-[dR][dK][dL][dL][dPhe(3,4-F2)][dK][dL][dK][dPhe(3,4-F2)][dK][dR]-NH2)" subject_of_test="Pseudomonas aeruginosa ATCC 27853" measurement_unit=µg/mL reported=1
molecule="CC(=O)N[C@H](CCCNC(=N)N)C(=O)N[C@H](CCCCN)C(=O)N[C@@H](C(=O)N[C@@H](C(=O)N[C@H](Cc1ccc2ccccc2c1)C(=O)N[C@H](CCCNC(=N)N)C(=O)N[C@@H](C(=O)N[C@H](CCCCN)C(=O)N[C@H](Cc1ccc2ccccc2c1)C(=O)N[C@H](CCCNC(=N)N)C(=O)N[C@H](CCCCN)C(N)=O)C(C)C)C(C)C)C(C)C [LV-16] (Ac-[dR][dK][dV][dV][d2Nal][dR][dV][dK][d2Nal][dR][dK]-NH2)" subject_of_test="Pseudomonas aeruginosa ATCC 27853" measurement_unit=µg/mL reported=4
molecule="CC(=O)N[C@H](CCCNC(=N)N)C(=O)N[C@H](CCCNC(=N)N)C(=O)N[C@H](CC(C)C)C(=O)N[C@H](CC(C)C)C(=O)N[C@H](Cc1ccc2ccccc2c1)C(=O)N[C@H](CCCCN)C(=O)N[C@H](CC(C)C)C(=O)N[C@H](CCCCN)C(=O)N[C@H](Cc1ccc2ccccc2c1)C(=O)N[C@H](CCCCN)C(=O)N[C@H](CCCNC(=N)N)C(N)=O [LV-24] (Ac-[dR][dR][dL][dL][d2Nal][dK][dL][dK][d2Nal][dK][dR]-NH2)" subject_of_test="Pseudomonas aeruginosa ATCC 27853" measurement_unit=µg/mL reported=2
molecule="CC(=O)N[C@H](CCCNC(=N)N)C(=O)N[C@H](CCCCN)C(=O)N[C@H](CC(C)C)C(=O)N[C@H](CC(C)C)C(=O)N[C@H](Cc1ccc2ccccc2c1)C(=O)N[C@H](CCCNC(=N)N)C(=O)N[C@H](CC(C)C)C(=O)N[C@H](CCCCN)C(=O)N[C@H](Cc1ccccc1)C(=O)N[C@H](CCCNC(=N)N)C(=O)N[C@H](CCCCN)C(N)=O [LV-4] (Ac-[dR][dK][dL][dL][d2Nal][dR][dL][dK][dF][dR][dK]-NH2)" subject_of_test="Pseudomonas aeruginosa ATCC 27853" measurement_unit=µg/mL reported=2

Measured values drawn from patent US20250304620A1 for this set.
